- tgt: BAF3-KIF5B-RET cells (Homo sapiens, UniProt P07949)
- Construct: fused on or other part: P33176 (Kinesin-1 heavy chain)
- Sequence (P07949 whole entry, change not shown, the tested form may be a part): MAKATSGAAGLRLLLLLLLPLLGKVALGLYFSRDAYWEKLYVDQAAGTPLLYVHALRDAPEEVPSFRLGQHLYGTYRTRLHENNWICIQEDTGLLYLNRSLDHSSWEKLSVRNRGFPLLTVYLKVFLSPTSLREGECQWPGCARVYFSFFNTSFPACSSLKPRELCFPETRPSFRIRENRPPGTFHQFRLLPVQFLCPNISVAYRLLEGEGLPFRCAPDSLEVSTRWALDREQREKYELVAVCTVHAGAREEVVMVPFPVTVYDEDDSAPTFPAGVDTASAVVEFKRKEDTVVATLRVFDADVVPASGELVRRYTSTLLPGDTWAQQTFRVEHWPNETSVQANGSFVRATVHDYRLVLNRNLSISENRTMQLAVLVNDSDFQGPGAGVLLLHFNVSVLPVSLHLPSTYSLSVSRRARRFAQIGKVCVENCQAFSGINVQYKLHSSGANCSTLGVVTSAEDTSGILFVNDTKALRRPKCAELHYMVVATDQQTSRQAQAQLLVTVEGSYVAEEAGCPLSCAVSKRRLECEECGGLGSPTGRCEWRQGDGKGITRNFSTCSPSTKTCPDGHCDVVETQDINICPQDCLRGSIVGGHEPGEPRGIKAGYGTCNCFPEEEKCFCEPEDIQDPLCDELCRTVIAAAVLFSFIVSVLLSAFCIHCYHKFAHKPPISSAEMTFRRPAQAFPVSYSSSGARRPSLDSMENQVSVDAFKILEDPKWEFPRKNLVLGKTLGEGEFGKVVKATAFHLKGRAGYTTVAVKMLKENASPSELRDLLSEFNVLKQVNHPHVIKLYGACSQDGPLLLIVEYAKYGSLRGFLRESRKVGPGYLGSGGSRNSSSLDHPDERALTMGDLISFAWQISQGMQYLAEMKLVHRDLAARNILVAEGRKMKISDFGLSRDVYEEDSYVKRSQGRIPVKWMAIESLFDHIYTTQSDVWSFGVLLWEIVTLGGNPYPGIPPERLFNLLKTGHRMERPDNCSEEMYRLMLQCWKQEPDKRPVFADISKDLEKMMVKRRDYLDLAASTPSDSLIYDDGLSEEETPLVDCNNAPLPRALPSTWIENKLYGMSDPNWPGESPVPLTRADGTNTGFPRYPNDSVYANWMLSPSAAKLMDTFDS
- testDescription: BAF3-KIF5B-RET Cell proliferation assay (CellTiter-Glo, 72 hours)
- Assay type: cell-based
- conditionSet: growth inhibition, read-out: BA/F3-KIF5B-RET Cellular activity
Listing of recorded GI50 by entry.

Completed entries (count: 5):
compound	GI50
COc1ccc(NC(=O)[C@@]2(C)C[C@H]3CN(c4ccc(-c5cc(OCC(C)(C)O)cn6ncc(C#N)c56)cn4)C[C@H]3C2)cn1 [Example 116]	> 100 nM
Cn1cc(-c2cc(-c3ccc(N4C5CC6CC4CC(NC(=O)OC(C)(C)C)(C6)C5)nc3)c3c(C#N)cnn3c2)cn1 [Example 180]	≤ 10 nM
COc1cc(C(=O)N[C@]2(C)C[C@H]3CN(c4cnc(-c5cc(-c6cnn(C)c6)cn6ncc(C#N)c56)cn4)C[C@H]3C2)ccn1 [Example 150]	≤ 10 nM
Cn1cc(-c2cc(-c3cnc(N4C[C@@H]5[C@@H](CNC(=O)c6ncccc6Cl)[C@@H]5C4)cn3)c3c(C#N)cnn3c2)cn1 [Example 153]	≤ 10 nM
CC(C)(O)COc1cc(-c2ccc(N3C[C@@H]4[C@@H](CNC(=O)c5c(F)cccc5Cl)[C@@H]4C3)nc2)c2c(C#N)cnn2c1 [Example 125]	≤ 10 nM

Now take the following compound into account.
[in] # get_value(readout='GI50', item= CC(C)(O)COc1cc(-c2ccc(N3C[C@@H]4C[C@](C)(NC(=O)c5ncccc5Cl)C[C@@H]4C3)nc2)c2c(C#N)cnn2c1 [Example 115] )
[out] 10 to 50 nM

###

- tgt: human KDR kinase (Homo sapiens, UniProt P35968)
- Construct: purchased Carna 08-191
- Sequence (P35968 20-1356): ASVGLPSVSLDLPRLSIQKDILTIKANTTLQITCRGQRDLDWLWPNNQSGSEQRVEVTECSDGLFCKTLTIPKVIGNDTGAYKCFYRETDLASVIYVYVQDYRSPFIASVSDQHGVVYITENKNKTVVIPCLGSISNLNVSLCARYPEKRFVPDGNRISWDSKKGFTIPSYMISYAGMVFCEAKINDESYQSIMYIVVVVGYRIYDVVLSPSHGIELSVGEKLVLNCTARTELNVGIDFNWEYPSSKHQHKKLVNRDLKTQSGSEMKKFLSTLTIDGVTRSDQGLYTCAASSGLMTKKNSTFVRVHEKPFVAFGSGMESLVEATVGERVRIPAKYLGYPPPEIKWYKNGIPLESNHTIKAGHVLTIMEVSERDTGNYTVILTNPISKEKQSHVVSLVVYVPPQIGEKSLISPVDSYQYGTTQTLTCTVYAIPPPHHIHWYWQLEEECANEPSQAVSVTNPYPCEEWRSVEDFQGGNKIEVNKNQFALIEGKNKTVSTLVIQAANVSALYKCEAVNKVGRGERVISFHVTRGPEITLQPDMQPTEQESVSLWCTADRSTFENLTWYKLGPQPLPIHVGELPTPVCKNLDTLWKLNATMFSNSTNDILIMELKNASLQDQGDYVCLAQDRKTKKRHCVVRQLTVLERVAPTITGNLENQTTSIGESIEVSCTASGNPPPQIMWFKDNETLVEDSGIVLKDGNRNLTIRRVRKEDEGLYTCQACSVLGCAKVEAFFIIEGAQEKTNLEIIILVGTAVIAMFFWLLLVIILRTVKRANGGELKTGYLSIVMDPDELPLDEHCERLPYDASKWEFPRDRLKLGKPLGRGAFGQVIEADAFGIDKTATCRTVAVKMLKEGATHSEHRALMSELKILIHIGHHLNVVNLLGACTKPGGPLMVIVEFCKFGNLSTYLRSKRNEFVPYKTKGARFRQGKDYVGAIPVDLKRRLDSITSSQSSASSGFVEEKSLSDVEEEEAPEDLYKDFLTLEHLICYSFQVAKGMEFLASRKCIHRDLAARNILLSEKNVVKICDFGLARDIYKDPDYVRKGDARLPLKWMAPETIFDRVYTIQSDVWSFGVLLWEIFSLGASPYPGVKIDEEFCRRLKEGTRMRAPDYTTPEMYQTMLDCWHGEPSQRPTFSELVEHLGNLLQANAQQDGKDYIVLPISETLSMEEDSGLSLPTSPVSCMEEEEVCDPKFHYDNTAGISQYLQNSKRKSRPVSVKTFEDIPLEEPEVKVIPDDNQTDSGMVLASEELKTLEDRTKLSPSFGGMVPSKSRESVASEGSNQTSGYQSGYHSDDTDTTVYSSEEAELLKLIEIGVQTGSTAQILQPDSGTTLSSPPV
- testDescription: KDR Kinase Assay (LanthaScreen TR-FRET enzymatic assay)
- Assay type: biochemical
- conditionSet: 1.2 nM KDR, 92 μM ATP
pIC50: −log10 of the molar value.
quantityName: pIC50

Completed entries (count: 2):
1) Cn1ccc(-c2cc(-c3ccc(N4C[C@@H]5C[C@@](C)(NC(=O)c6ncccc6F)C[C@@H]5C4)nc3)c3c(C#N)cnn3c2)n1 7.30 to 8.00
2) CCOc1cc(-c2ccc(N3C[C@H]4C[C@H](NC(=O)c5ncccc5Cl)C[C@H]4C3)nc2)c2c(C#N)cnn2c1 7.30 to 8.00

[in] # get_value(readout='pIC50', item= Cn1cc(-c2cc(-c3ccc(N4C[C@@H]5[C@H](C4)[C@H]5NC(=O)c4ncc(F)cc4Cl)nc3)c3c(C#N)cnn3c2)cn1 )
[out] 7.30 to 8.00

[in] # get_value(readout='pIC50', item= CC(C)(O)COc1cc(-c2ccc(N3C4CC5CC3CC(NS(C)(=O)=O)(C5)C4)nc2)c2c(C#N)cnn2c1 )
[out] 7.00 to 7.30

[in] # get_value(readout='pIC50', item= Cn1cc(-c2cc(-c3ccc(N4C[C@@H]5C[C@@](C)(NC(=O)c6ncccc6Cl)C[C@@H]5C4)nc3)c3c(C#N)cnn3c2)cn1 )
[out] ≥ 8.00

###

The reader will find pIC50 measurements below, all made with human KDR kinase (Homo sapiens, UniProt P35968).
pIC50: −log10 of the molar value.

Completed entries (count: 3):
compound	pIC50
COc1ccc(CN[C@H]2[C@@H]3CN(c4ccc(-c5cc(-c6cnn(C)c6)cn6ncc(C#N)c56)cn4)C[C@@H]32)cn1	7.30 to 8.00
Cn1cc(-c2cc(-c3ccc(N4C[C@@H]5CN(S(=O)(=O)c6c(F)cccc6Cl)C[C@@H]5C4)nc3)c3c(C#N)cnn3c2)cn1	≥ 8.00
CC(C)[C@@H](O)C(=O)N[C@H]1[C@@H]2CN(c3ccc(-c4cc(-c5cnn(C)c5)cn5ncc(C#N)c45)cn3)C[C@@H]21	7.30 to 8.00

[in] Please provide the recorded pIC50 for COc1ccc(CN[C@]2(C)C[C@H]3CN(c4cnc(-c5cc(-c6cnn(C)c6)cn6ncc(C#N)c56)cn4)C[C@H]3C2)cn1 , tested on human KDR kinase (Homo sapiens, UniProt P35968).
[out] 7.00 to 7.30

[in] Please provide the recorded pIC50 for Cn1ccc(-c2cc(-c3cnc(N4C[C@@H]5C[C@@](C)(NC(=O)c6ncccc6F)C[C@@H]5C4)cn3)c3c(C#N)cnn3c2)n1 , tested on human KDR kinase (Homo sapiens, UniProt P35968).
[out] 7.30 to 8.00

[in] Please provide the recorded pIC50 for CC(C)C(O)C(=O)N1C[C@@H]2CN(c3ccc(-c4cc(-c5cnn(C)c5)cn5ncc(C#N)c45)cn3)C[C@@H]2C1 (stereo partly drawn) , tested on human KDR kinase (Homo sapiens, UniProt P35968).
[out] 7.30 to 8.00
